measurement.notes: Toxicity studies, microtetrazolium test
Assay type: cell-based
experimental.setup: dog, MDCK cells (ATCC CCL-34)
property.label: CC50 at 48 h

                                   molecule  value_observed
0  COC(=O)c1c(-c2ccc(OC)c(OC)c2)oc2c(F)c(-n3ccnc3)c(F)c(F)c2c1=O           61 µM
1  NC(=O)c1ncn([C@@H]2O[C@H](CO)[C@@H](O)[C@H]2O)n1 [ribavirin, reference compound]       > 2130 µM
2  COc1ccc(-c2cc(=O)c3c(F)c(F)c(-n4ccnc4)c(F)c3o2)cc1OC        > 746 µM
3  COC(=O)c1c(-c2ccc(OC)c(OC)c2)oc2c(F)c(-n3ccnc3)c(F)cc2c1=O        > 679 µM
